Tested on: KB85 (Homo sapiens)
EXPERIMENT_NOTES: Concentration required to kill human epidermoid KB85 cell lines containing moderate levels of P-glycoprotein after 3 days of continuous exposure
TEST_PARAMETERS: KB85, 72 h
OBSERVED_PROPERTY: IC50 (nM)

- COMPOUND: "CN[C@H](C(=O)N[C@H](C(=O)N(C)[C@H](/C=C(\\C)C(=O)O)C(C)C)C(C)(C)C)C(C)(C)c1ccccc1 [TALTOBULIN]"
  ASSAY_TARGET: "KB85 (Homo sapiens)"
  QUANTITY_UNIT: "nM"
  OBSERVED: 2.4
- COMPOUND: "CCOC(=O)/C(C)=C/[C@H](C(C)C)N(C)C(=O)[C@@H](NC(=O)[C@@H](NC)C(C)(C)c1ccc(C)c(C)c1)C(C)(C)C"
  ASSAY_TARGET: "KB85 (Homo sapiens)"
  QUANTITY_UNIT: "nM"
  OBSERVED: 24
- COMPOUND: "CN[C@H](C(=O)N[C@H](C(=O)N(C)[C@H](/C=C(\\C)C(=O)O)C(C)C)C(C)(C)C)C(C)(C)c1ccc(C)c(C)c1"
  ASSAY_TARGET: "KB85 (Homo sapiens)"
  QUANTITY_UNIT: "nM"
  OBSERVED: 1.13
- COMPOUND: "CN[C@H](C(=O)N[C@H](C(=O)N(C)[C@H](/C=C(\\C)C(=O)O)C(C)C)C(C)(C)C)C(C)(C)c1cccc(F)c1"
  ASSAY_TARGET: "KB85 (Homo sapiens)"
  QUANTITY_UNIT: "nM"
  OBSERVED: 1.8
- COMPOUND: "CN[C@H](C(=O)N[C@H](C(=O)N(C)[C@H](/C=C(\\C)C(=O)O)C(C)C)C(C)(C)C)C(C)(C)c1cccs1"
  ASSAY_TARGET: "KB85 (Homo sapiens)"
  QUANTITY_UNIT: "nM"
  OBSERVED: 3.9
- COMPOUND: "CN[C@H](C(=O)N[C@H](C(=O)N(C)[C@H](/C=C(\\C)C(=O)O)C(C)C)C(C)(C)C)C(C)(C)c1cc(C(F)(F)F)cc(C(F)(F)F)c1"
  ASSAY_TARGET: "KB85 (Homo sapiens)"
  QUANTITY_UNIT: "nM"
  OBSERVED: 19
- COMPOUND: "CN[C@H](C(=O)N[C@H](C(=O)N(C)[C@H](/C=C(\\C)C(=O)O)C(C)C)C(C)(C)C)C(C)(C)c1cccc(C)c1"
  ASSAY_TARGET: "KB85 (Homo sapiens)"
  QUANTITY_UNIT: "nM"
  OBSERVED: 0.65

---

System: KB85 (Homo sapiens)
EXPERIMENT_NOTES: Concentration required to kill human epidermoid KB85 cell lines containing moderate levels of P-glycoprotein after 3 days of continuous exposure
TEST_PARAMETERS: KB85, 72 h
Item-by-item account of IC50

- SMI: "CCOC(=O)/C(C)=C/[C@H](C(C)C)N(C)C(=O)[C@@H](NC(=O)[C@H](NC)C(C)(C)c1cccc(C)c1)C(C)(C)C"
  ASSAY_TARGET: "KB85 (Homo sapiens)"
  IC50: "1700 nM"
- SMI: "CN[C@H](C(=O)N[C@H](C(=O)N(C)[C@H](/C=C(\\C)C(=O)O)C(C)C)C(C)(C)C)C(C)(C)c1cc(F)cc(F)c1"
  ASSAY_TARGET: "KB85 (Homo sapiens)"
  IC50: "16.2 nM"
- SMI: "CCc1cccc(C(C)(C)[C@H](NC)C(=O)N[C@H](C(=O)N(C)[C@H](/C=C(\\C)C(=O)O)C(C)C)C(C)(C)C)c1"
  ASSAY_TARGET: "KB85 (Homo sapiens)"
  IC50: "1.8 nM"
